# measured.on: UniProt O43614
# Sequence (O43614 whole entry): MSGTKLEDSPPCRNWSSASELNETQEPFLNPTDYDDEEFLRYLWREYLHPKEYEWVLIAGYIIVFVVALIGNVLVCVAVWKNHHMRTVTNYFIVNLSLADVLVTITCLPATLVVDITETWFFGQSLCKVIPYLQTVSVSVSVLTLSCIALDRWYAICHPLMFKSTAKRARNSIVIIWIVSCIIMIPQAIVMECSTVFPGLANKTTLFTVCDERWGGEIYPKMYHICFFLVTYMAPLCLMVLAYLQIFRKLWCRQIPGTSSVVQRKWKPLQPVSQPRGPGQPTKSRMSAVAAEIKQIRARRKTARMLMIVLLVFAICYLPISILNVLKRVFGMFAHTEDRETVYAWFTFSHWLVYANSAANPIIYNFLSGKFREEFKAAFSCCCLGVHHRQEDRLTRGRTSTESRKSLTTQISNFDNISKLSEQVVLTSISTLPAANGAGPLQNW
# protocol.summary: IPOne (IP-One, Cisbio) orexin receptor agonist assay in CHO cells expressing human OX2R
# cond: CHO, hOX2R_IP; percentage of mean max effect of a reference compound at 1 uM (100% activity vs Orexin A)
quantity: Emax (%)

{"compound": "CC(C)C1CCC(OC[C@H]2[C@@H](NS(C)(=O)=O)C[C@@H](C)N2C(=O)OCCF)CC1 (stereo partly drawn)", "units.of.measure": "%", "reported.result": 99}
{"compound": "CC(C)OC(=O)N1[C@H](C)C[C@H](NS(=O)(=O)N(C)C)[C@@H]1COC1CCN(c2ncc(F)cn2)CC1", "units.of.measure": "%", "reported.result": 101}
{"compound": "COC[C@@H]1C[C@H](NS(=O)(=O)N(C)C)[C@H](CO[C@H]2CC[C@@H](c3cccc(F)c3)CC2)N1C(=O)OC", "units.of.measure": "%", "reported.result": 101}
{"compound": "CC(C)C1CCC(OC[C@H]2[C@@H](NS(C)(=O)=O)C[C@@H](C)N2C(=O)OCC(F)F)CC1 (stereo partly drawn)", "units.of.measure": "%", "reported.result": 101}
{"compound": "COC(=O)N1[C@H](C)C[C@H](NS(C)(=O)=O)[C@@H]1CO[C@H]1CC[C@@H](c2c(F)ccc(F)c2F)CC1", "units.of.measure": "%", "reported.result": 102}
{"compound": "CC[C@H]1C[C@@H](NS(C)(=O)=O)[C@@H](CO[C@H]2CC[C@@H](c3ccccc3)CC2)N1C(=O)OC", "units.of.measure": "%", "reported.result": 62}

Just for reference, patent US11098029B2 is where these values come from.
